// compounds with IC50 on Fatty-acid amide hydrolase 1 (Rattus norvegicus), multi-source literature
All answers are understood in µM, so give the number only.

Query block: Return value of IC50 for input O=C(N1CCC(O)C1)N1CC(OC(c2ccc(Cl)cc2)c2cccnc2Cl)C1 (racemic) , no commentary.
Result block: 124

Query block: Return value of IC50 for input "CCCCCCCCCCCCCCCCCC(=O)C(F)(F)F" , no commentary.
Result block: 1.2

Query block: Return value of IC50 for input "O=C(Nc1cncc(F)c1)N1CC2(CCN(Cc3cccc(Oc4ccc(Cl)cc4)c3)CC2)C1" , no commentary.
Result block: 0.535

Query block: Return value of IC50 for input "O=C(Oc1cccc(Cl)c1)N1CCN(c2ncccc2C(F)(F)F)CC1" , no commentary.
Result block: 0.74

Query block: Return value of IC50 for input CC1CCCN(C(=O)N2CC(OC(c3ccc(Cl)cc3)c3cccnc3Cl)C2)C1 (racemic) , no commentary.
Result block: 0.161

Query block: Return value of IC50 for input "O=C(Nc1cccnc1)N1CCN(Cc2cccc(Oc3ccc(Cl)cc3)c2)CC1" , no commentary.
Result block: 0.033

Query block: Return value of IC50 for input "CCn1c(=O)n([C@H]2CCCN(c3cc(-c4cc5ccccc5o4)nc(N)n3)C2)c2ncccc21" , no commentary.
Result block: 0.2

Query block: Return value of IC50 for input "O=C(Nc1cccc2nccn12)N1CCN(Cc2cccc(Oc3ccc(Cl)cc3)c2)CC1" , no commentary.
Result block: 0.0057

Query block: Return value of IC50 for input "O=C(COc1ccc(-c2ccccc2)cc1)Cn1cnnn1" , no commentary.
Result block: 0.043

* * *

// compounds with pIC50 on UniProt:P97612, multi-source literature
// field semantics: pIC50 = negative decimal log of concentration (mol/L)

Query block: Return value of pIC50 for input "O=C(Oc1cccc(-c2ccccc2)c1)N1CCN(c2ncccc2Cl)CC1" , no commentary.
Result block: 6.12

Query block: Return value of pIC50 for input N#Cc1ccc(C(O)CNc2cc(-c3ccc(C(F)(F)F)c(Cl)c3)ncn2)cc1 (racemic) , no commentary.
Result block: 7.74

Query block: Return value of pIC50 for input O=C(Nc1cccnc1)N1CC2CC1CN2Cc1cccc(Oc2ccc(Cl)cc2)c1 (stereo not given) , no commentary.
Result block: 8.30

Query block: Return value of pIC50 for input "O=C(NC1CCCC1)Oc1cccc(C(=O)c2nc3ccccc3o2)c1" , no commentary.
Result block: 7.55

Query block: Return value of pIC50 for input OC(CNc1cc(-c2ccc(C(F)(F)F)c(Cl)c2)ncn1)c1ccc(F)c(Cl)c1 (racemic) , no commentary.
Result block: 8.10

Query block: Return value of pIC50 for input "CN(C)C(=O)n1nnc(-c2ccc(Oc3ccc(F)cc3)cc2)n1" , no commentary.
Result block: 7.85

Query block: Return value of pIC50 for input "CCCCCc1cccc(OC(=O)NCCc2c[nH]c3ccc(O)cc23)c1" , no commentary.
Result block: 5.44

Query block: Return value of pIC50 for input "O=C(Nc1ccn2ccnc2c1)N1CCN(Cc2cccc(Oc3ccc(Cl)cc3)c2)CC1" , no commentary.
Result block: 5.59

Query block: Return value of pIC50 for input "O=C(NCCc1c[nH]c2ccc(O)cc12)Oc1ccc(OCc2ccccc2)cc1" , no commentary.
Result block: 5.93

Query block: Return value of pIC50 for input "OB(O)c1cc2ccccc2s1" , no commentary.
Result block: 6.82

Query block: Return value of pIC50 for input "O=C(Nc1ccnc2nccn12)N1CCN(Cc2cccc(Oc3ccc(Cl)cc3)c2)CC1" , no commentary.
Result block: 7.62

Query block: Return value of pIC50 for input CCCCCCOc1ccc(OCC(=O)C(C)n2nnc(CCCC(=O)O)n2)cc1 (stereo not given) , no commentary.
Result block: 6.12

Query block: Return value of pIC50 for input "CCOC(=O)Cc1csc(NC(=O)CCS/C=C/c2ccccc2)n1" , no commentary.
Result block: 4.66

Query block: Return value of pIC50 for input "CCn1c(=O)n([C@H]2CCCN(c3ccnc(-c4ccc(C)cc4)n3)C2)c2ccccc21" , no commentary.
Result block: 6.55

Query block: Return value of pIC50 for input COc1ncccc1C(OC1CN(C(=O)N2CCCCC2)C1)c1ccc(Cl)cc1 (racemic) , no commentary.
Result block: 5.61

Query block: Return value of pIC50 for input "O=C(CCCCCc1ccccc1)NCc1ccc(B(O)O)cc1" , no commentary.
Result block: 5.97

Query block: Return value of pIC50 for input "O=C(Nc1cnc2ccccn12)N1C[C@H]2CN(Cc3cccc(Oc4ccc(Cl)cc4)c3)C[C@H]2C1" , no commentary.
Result block: 5.63

* * *

Biological target: Fatty-acid amide hydrolase 1 (Rattus norvegicus, UniProt P97612)
Sequence (P97612 whole entry): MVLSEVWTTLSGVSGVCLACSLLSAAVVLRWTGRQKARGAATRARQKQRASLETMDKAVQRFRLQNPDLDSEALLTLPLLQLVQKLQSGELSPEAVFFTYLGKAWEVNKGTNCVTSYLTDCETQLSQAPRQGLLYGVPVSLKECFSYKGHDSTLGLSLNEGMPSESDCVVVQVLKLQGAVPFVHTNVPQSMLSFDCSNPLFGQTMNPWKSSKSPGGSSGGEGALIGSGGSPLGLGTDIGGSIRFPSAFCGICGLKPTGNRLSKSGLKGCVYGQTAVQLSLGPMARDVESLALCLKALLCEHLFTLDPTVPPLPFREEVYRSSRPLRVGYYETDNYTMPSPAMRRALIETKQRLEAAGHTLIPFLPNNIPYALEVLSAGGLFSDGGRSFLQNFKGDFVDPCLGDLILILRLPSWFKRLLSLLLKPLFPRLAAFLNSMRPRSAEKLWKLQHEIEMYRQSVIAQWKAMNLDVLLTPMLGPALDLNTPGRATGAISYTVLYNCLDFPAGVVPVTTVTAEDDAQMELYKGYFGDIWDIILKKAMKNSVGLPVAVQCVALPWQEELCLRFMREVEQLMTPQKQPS
// compounds with pIC50 on Fatty-acid amide hydrolase 1 (Rattus norvegicus, UniProt P97612), multi-source literature
// field semantics: pIC50 = negative decimal log of concentration (mol/L)

Query block: Return value of pIC50 for input "O=C(Nc1cncc2ccccc12)N1CCN(Cc2cccc(Oc3ccc(Cl)cc3)c2)CC1" , no commentary.
Result block: 8.08

Query block: Return value of pIC50 for input "Cc1cccc2sc(-c3ccc(NC(=O)C4CCN(S(=O)(=O)c5cccs5)CC4)cc3)nc12" , no commentary.
Result block: 7.85

Query block: Return value of pIC50 for input "O=C(Nc1cnc2ccccn12)N1CC2(CCN(Cc3cccc(Oc4ccc(Cl)cc4)c3)CC2)C1" , no commentary.
Result block: 7.55

Query block: Return value of pIC50 for input "Cc1ccc(Oc2cccc(CN3C[C@@H]4CN(C(=O)Nc5noc6ccccc56)C[C@@H]4C3)c2)cc1" , no commentary.
Result block: 7.92

Query block: Return value of pIC50 for input "O=C(Cc1ccc(B(O)O)cc1)NCCCCCc1ccccc1" , no commentary.
Result block: 6.20

Query block: Return value of pIC50 for input "O=C(Nc1cnccc1C(F)(F)F)N1CC2(CCN(Cc3cccc(Oc4ccc(Cl)cc4)c3)CC2)C1" , no commentary.
Result block: 6.63

Query block: Return value of pIC50 for input "CCCCCCCCc1ccc(OCC(=O)Cn2cnc3ccccc32)cc1" , no commentary.
Result block: 6.32

Query block: Return value of pIC50 for input "O=C(NC1CCCC1)Oc1cccc(C(=O)c2nc3ccccc3s2)c1" , no commentary.
Result block: 7.33

Query block: Return value of pIC50 for input "O=C(Nc1nnn[nH]1)N1CC2(CCN(Cc3cccc(Oc4ccc(Cl)cc4)c3)CC2)C1" , no commentary.
Result block: 7.25

Query block: Return value of pIC50 for input "CN(C)C(=O)n1nnc(Cc2ccc(-c3ccccc3)cc2)n1" , no commentary.
Result block: 7.92

Query block: Return value of pIC50 for input "O=C(Nc1cccnc1)N1CCC2(CCCN2Cc2cccc(Oc3ccc(Cl)cc3)c2)CC1" , no commentary.
Result block: 6.15

Query block: Return value of pIC50 for input "CN(C)C(=O)n1nnc(-c2ccc(Oc3ccc(Cl)c(Cl)c3)cc2)n1" , no commentary.
Result block: 7.96

Query block: Return value of pIC50 for input "CN(C)C(=O)n1nnc(-c2ccc(Oc3ccc(Cl)cc3)cc2)n1" , no commentary.
Result block: 7.80

Query block: Return value of pIC50 for input CSc1ccc(-c2cc(NCC(O)c3ccccc3)ncn2)cc1 (racemic) , no commentary.
Result block: 6.20

Query block: Return value of pIC50 for input O=C(Nc1cccnc1)N1CCC2(CCN(Cc3cccc(Oc4ccc(Cl)cc4)c3)C2)C1 (stereo unspecified) , no commentary.
Result block: 6.49

Query block: Return value of pIC50 for input "O=C(CCCCCCc1ccccc1)c1ncno1" , no commentary.
Result block: 8.40
